Target: RAC-alpha serine/threonine-protein kinase (Homo sapiens) (UniProt P31749)
Sequence (P31749 whole entry): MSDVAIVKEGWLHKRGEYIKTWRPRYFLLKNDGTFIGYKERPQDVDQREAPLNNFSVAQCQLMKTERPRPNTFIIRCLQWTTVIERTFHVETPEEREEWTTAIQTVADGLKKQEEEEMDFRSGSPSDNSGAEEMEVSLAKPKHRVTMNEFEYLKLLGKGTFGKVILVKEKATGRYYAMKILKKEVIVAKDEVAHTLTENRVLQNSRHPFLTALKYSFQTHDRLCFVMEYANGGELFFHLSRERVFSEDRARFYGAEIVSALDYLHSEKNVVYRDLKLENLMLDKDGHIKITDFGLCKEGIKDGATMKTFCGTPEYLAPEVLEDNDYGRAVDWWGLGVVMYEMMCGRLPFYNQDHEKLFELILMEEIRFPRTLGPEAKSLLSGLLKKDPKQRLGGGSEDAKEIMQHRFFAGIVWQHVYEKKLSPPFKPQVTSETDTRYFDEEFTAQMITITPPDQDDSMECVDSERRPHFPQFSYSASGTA
Experiment: In vitro percent inhibition of Protein kinase B, alpha at 10 uM concentration of compound dissolved in 100% DMSO using 5''-[gamma-33P]-triphosphate
Assign inhibition to each entry below.
State the value with its unit after it.

COC(=O)CCCc1ccc(-c2nc3cc4ccccc4cc3nc2-c2ccc(CCCC(=O)OC)s2)s1 | -6%
O=C(O)Cc1ccc(-c2nc3cc4ccccc4cc3nc2-c2ccc(CC(=O)O)s2)s1 | 15%
COc1cc2nc3nc(-c4cccs4)c(-c4cccs4)nc3nc2cc1OC | -4%

Give inhibition for each of the items listed below.
1. O=C(O)c1ccc2cc3nc(-c4cccs4)c(-c4cccs4)nc3cc2c1
2. O=C(O)Cc1csc(-c2nc3cc4ccccc4cc3nc2-c2cc(CC(=O)O)cs2)c1
3. c1csc(-c2nc3cc4c(cc3nc2-c2cccs2)OCO4)c1
4. COC(=O)CCc1ccc(-c2nc3cc4ccccc4cc3nc2-c2ccc(CCC(=O)OC)s2)s1
5. O=C(O)c1ccc(-c2nc3cc4ccccc4cc3nc2-c2ccc(C(=O)O)s2)s1
6. COC(=O)Cc1csc(-c2nc3cc4ccccc4cc3nc2-c2cc(CC(=O)OC)cs2)c1
7. COc1cc2nc(-c3cccs3)c(-c3cccs3)nc2cc1OC

1: -10%; 2: 17%; 3: -6%; 4: 14%; 5: 12%; 6: 1%; 7: -6%

====

Target: Mitogen-activated protein kinase 3 (Homo sapiens) (UniProt P27361)
Sequence (P27361 whole entry): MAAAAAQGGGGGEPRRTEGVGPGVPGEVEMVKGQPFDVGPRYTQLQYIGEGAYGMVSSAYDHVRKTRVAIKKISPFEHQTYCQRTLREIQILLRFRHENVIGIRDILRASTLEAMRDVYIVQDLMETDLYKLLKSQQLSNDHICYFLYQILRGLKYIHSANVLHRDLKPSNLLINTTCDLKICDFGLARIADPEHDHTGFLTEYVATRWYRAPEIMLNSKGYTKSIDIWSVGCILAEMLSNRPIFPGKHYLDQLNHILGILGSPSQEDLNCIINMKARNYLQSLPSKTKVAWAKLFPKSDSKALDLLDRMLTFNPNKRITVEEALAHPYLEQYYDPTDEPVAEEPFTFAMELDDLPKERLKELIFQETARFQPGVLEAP
Assay: In vitro percent inhibition of Mitogen-activated protein kinase 3 at 10 uM concentration of compound dissolved in 100% DMSO using 5''-[gamma-33P]-triphosphate
Assign inhibition to each entry below.
One number for each entry, in %.

COC(=O)Cc1csc(-c2nc3cc4ccccc4cc3nc2-c2cc(CC(=O)OC)cs2)c1 | 11

Give inhibition for each of the items listed below.
1. Oc1cc2nc(-c3cccs3)c(-c3cccs3)nc2cc1O
2. O=C(O)c1ccc2cc3nc(-c4cccs4)c(-c4cccs4)nc3cc2c1
3. O=C(O)Cc1ccc(-c2nc3cc4ccccc4cc3nc2-c2ccc(CC(=O)O)s2)s1
4. c1csc(-c2nc3cc4c(cc3nc2-c2cccs2)OCCCO4)c1

25
18
52
21

====

Biological target: UniProt P09619
Sequence (P09619 whole entry): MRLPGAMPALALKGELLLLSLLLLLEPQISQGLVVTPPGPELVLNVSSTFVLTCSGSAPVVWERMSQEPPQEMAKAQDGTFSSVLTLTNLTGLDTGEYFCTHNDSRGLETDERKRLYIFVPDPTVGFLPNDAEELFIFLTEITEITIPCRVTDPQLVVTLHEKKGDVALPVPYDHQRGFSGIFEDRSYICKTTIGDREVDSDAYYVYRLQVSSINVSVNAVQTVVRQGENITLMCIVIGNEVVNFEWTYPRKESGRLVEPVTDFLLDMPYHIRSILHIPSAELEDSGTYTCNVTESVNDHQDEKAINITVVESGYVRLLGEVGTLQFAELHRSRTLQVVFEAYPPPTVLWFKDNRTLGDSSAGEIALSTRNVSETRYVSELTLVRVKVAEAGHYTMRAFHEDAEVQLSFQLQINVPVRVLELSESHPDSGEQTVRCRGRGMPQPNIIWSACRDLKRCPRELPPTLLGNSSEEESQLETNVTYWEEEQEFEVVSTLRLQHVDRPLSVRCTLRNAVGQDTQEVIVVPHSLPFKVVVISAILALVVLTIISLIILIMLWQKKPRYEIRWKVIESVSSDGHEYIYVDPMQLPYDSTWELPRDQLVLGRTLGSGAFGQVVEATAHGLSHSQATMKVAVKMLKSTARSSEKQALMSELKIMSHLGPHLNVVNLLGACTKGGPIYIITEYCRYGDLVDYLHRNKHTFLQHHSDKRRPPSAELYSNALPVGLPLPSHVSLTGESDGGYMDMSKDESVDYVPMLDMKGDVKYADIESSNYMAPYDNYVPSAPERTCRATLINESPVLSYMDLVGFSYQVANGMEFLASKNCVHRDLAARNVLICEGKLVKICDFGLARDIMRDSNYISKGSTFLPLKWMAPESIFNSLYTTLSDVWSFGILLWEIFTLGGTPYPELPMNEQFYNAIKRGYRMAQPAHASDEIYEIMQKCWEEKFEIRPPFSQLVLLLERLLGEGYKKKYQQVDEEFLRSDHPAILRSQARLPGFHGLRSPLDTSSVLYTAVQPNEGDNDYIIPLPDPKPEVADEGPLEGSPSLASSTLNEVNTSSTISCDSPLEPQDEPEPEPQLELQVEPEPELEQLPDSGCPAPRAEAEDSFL
Assay: In vitro percent inhibition of Platelet-derived growth factor receptor, beta polypeptide at 10 uM concentration of compound dissolved in 100% DMSO using 5''-[gamma-33P]-triphosphate
Parameter: inhibition
State the value with its unit after it.

A selection of reference data follows.
COC(=O)Cc1csc(-c2nc3cc4ccccc4cc3nc2-c2cc(CC(=O)OC)cs2)c1 | 9%
COc1cc2nc(-c3cccs3)c(-c3cccs3)nc2cc1OC | 7%
O=C(O)CCCc1ccc(-c2nc3cc4ccccc4cc3nc2-c2ccc(CCCC(=O)O)s2)s1 | 37%
COc1cc2nc3nc(-c4cccs4)c(-c4cccs4)nc3nc2cc1OC | 5%
O=C(O)CCc1ccc(-c2nc3cc4ccccc4cc3nc2-c2ccc(CCC(=O)O)s2)s1 | 49%
O=C(O)Cc1csc(-c2nc3cc4ccccc4cc3nc2-c2cc(CC(=O)O)cs2)c1 | 22%

Give inhibition for each of the items listed below.
1. c1csc(-c2nc3cc4c(cc3nc2-c2cccs2)OCO4)c1
2. O=C(O)c1ccc2cc3nc(-c4cccs4)c(-c4cccs4)nc3cc2c1
3. COC(=O)CCCc1ccc(-c2nc3cc4ccccc4cc3nc2-c2ccc(CCCC(=O)OC)s2)s1
4. O=C(O)Cc1ccc(-c2nc3cc4ccccc4cc3nc2-c2ccc(CC(=O)O)s2)s1

54%
68%
47%
10%

====

Molecular target: Hepatocyte growth factor receptor (Homo sapiens)
Experiment: In vitro percent inhibition of Met proto-oncogene tyrosine kinase at 10 uM concentration of compound dissolved in 100% DMSO using 5''-[gamma-33P]-triphosphate
Rule: MET for inhibition not less than 10%, NOT MET for anything less.

Examples with answers:
COc1cc2nc3nc(-c4cccs4)c(-c4cccs4)nc3nc2cc1OC | MET
O=C(O)CCc1ccc(-c2nc3cc4ccccc4cc3nc2-c2ccc(CCC(=O)O)s2)s1 | MET
O=C(O)c1ccc2cc3nc(-c4cccs4)c(-c4cccs4)nc3cc2c1 | MET
c1csc(-c2nc3cc4ccccc4cc3nc2-c2cccs2)c1 | MET
COC(=O)Cc1csc(-c2nc3cc4ccccc4cc3nc2-c2cc(CC(=O)OC)cs2)c1 | NOT MET
COc1cc2nc(-c3cccs3)c(-c3cccs3)nc2cc1OC | NOT MET
c1csc(-c2nc3cc4c(cc3nc2-c2cccs2)OCCCO4)c1 | MET
O=C(O)C1COc2cc3nc(-c4cccs4)c(-c4cccs4)nc3cc2O1 (configuration not stated) | NOT MET

Check if inhibition >= 10% (inclusive). Item: COC(=O)CCc1ccc(-c2nc3cc4ccccc4cc3nc2-c2ccc(CCC(=O)OC)s2)s1
MET

Check if inhibition >= 10% (inclusive). Item: c1csc(-c2nc3cc4c(cc3nc2-c2cccs2)OCCO4)c1
MET

Check if inhibition >= 10% (inclusive). Item: COC(=O)CCCc1ccc(-c2nc3cc4ccccc4cc3nc2-c2ccc(CCCC(=O)OC)s2)s1
MET

====

Experiment: In vitro percent inhibition of Ribosomal S6 kinase 1 at 10 uM concentration of compound dissolved in 100% DMSO using 5''-[gamma-33P]-triphosphate
Categories are assigned from the measured inhibition using these intervals: low band: < 10%; middle band: ≥ 10% and < 30%; high band: ≥ 30%

c1csc(-c2nc3cc4ccccc4cc3nc2-c2cccs2)c1 | low band
O=C(O)C1COc2cc3nc(-c4cccs4)c(-c4cccs4)nc3cc2O1 (configuration not stated) | middle band
O=C(O)c1ccc2cc3nc(-c4cccs4)c(-c4cccs4)nc3cc2c1 | low band

Sort into band: COC(=O)CCCc1ccc(-c2nc3cc4ccccc4cc3nc2-c2ccc(CCCC(=O)OC)s2)s1
high band

Sort into band: O=C(O)Cc1csc(-c2nc3cc4ccccc4cc3nc2-c2cc(CC(=O)O)cs2)c1
middle band

Sort into band: O=C(O)CCCc1ccc(-c2nc3cc4ccccc4cc3nc2-c2ccc(CCCC(=O)O)s2)s1
middle band

Sort into band: COc1cc2nc(-c3cccs3)c(-c3cccs3)nc2cc1OC
middle band

Sort into band: O=C(O)c1ccc(-c2nc3cc4ccccc4cc3nc2-c2ccc(C(=O)O)s2)s1
high band

Sort into band: c1csc(-c2nc3cc4c(cc3nc2-c2cccs2)OCO4)c1
low band

Sort into band: c1csc(-c2nc3cc4c(cc3nc2-c2cccs2)OCCO4)c1
middle band

Sort into band: COC(=O)Cc1csc(-c2nc3cc4ccccc4cc3nc2-c2cc(CC(=O)OC)cs2)c1
middle band

====

Molecular target: Insulin receptor (Homo sapiens)
Assay: In vitro percent inhibition of Insulin receptor at 10 uM concentration of compound dissolved in 100% DMSO using 5''-[gamma-33P]-triphosphate
Parameter: inhibition (%)
One number for each entry, in %.

A selection of reference data follows.
O=C(O)Cc1ccc(-c2nc3cc4ccccc4cc3nc2-c2ccc(CC(=O)O)s2)s1 | 5
c1csc(-c2nc3cc4c(cc3nc2-c2cccs2)OCCO4)c1 | 48
COc1cc2nc(-c3cccs3)c(-c3cccs3)nc2cc1OC | -7
O=C(O)CCc1ccc(-c2nc3cc4ccccc4cc3nc2-c2ccc(CCC(=O)O)s2)s1 | -5
c1csc(-c2nc3cc4ccccc4cc3nc2-c2cccs2)c1 | 55

Give inhibition for each of the items listed below.
1. c1csc(-c2nc3cc4c(cc3nc2-c2cccs2)OCO4)c1
2. COc1cc2nc3nc(-c4cccs4)c(-c4cccs4)nc3nc2cc1OC
3. O=C(O)c1ccc2cc3nc(-c4cccs4)c(-c4cccs4)nc3cc2c1
4. Oc1cc2nc(-c3cccs3)c(-c3cccs3)nc2cc1O
5. c1csc(-c2nc3cc4c(cc3nc2-c2cccs2)OCCCO4)c1

[29, -7, 42, -4, 34]

====

Assign inhibition to each entry below.
Biological target: Rho-associated protein kinase 2 (Homo sapiens)
Assay: In vitro percent inhibition of Protein kinase ROCK2 at 10 uM concentration of compound dissolved in 100% DMSO using 5''-[gamma-33P]-triphosphate
Answers are plain numbers, in %.

A selection of reference data follows.
O=C(O)c1ccc2cc3nc(-c4cccs4)c(-c4cccs4)nc3cc2c1 | 15
O=C(O)C1COc2cc3nc(-c4cccs4)c(-c4cccs4)nc3cc2O1 (stereo unspecified) | -1
O=C(O)CCc1ccc(-c2nc3cc4ccccc4cc3nc2-c2ccc(CCC(=O)O)s2)s1 | 18
O=C(O)Cc1ccc(-c2nc3cc4ccccc4cc3nc2-c2ccc(CC(=O)O)s2)s1 | 5
COC(=O)CCCc1ccc(-c2nc3cc4ccccc4cc3nc2-c2ccc(CCCC(=O)OC)s2)s1 | 5

Give inhibition for each of the items listed below.
1. O=C(O)CCCc1ccc(-c2nc3cc4ccccc4cc3nc2-c2ccc(CCCC(=O)O)s2)s1
2. O=C(O)c1ccc(-c2nc3cc4ccccc4cc3nc2-c2ccc(C(=O)O)s2)s1

1: 0; 2: 19

Give inhibition for each of the items listed below.
1. COC(=O)Cc1csc(-c2nc3cc4ccccc4cc3nc2-c2cc(CC(=O)OC)cs2)c1
2. c1csc(-c2nc3cc4c(cc3nc2-c2cccs2)OCCCO4)c1
3. c1csc(-c2nc3cc4c(cc3nc2-c2cccs2)OCO4)c1
4. COC(=O)CCc1ccc(-c2nc3cc4ccccc4cc3nc2-c2ccc(CCC(=O)OC)s2)s1
5. c1csc(-c2nc3cc4c(cc3nc2-c2cccs2)OCCO4)c1

[4, 32, 31, 5, 41]
